# Target: T1, Human VSIG4-L-CHO (human VSIG4 long isoform on CHO-K1 cells) (human, UniProt Q9Y279 20-399)
# T1 construct: also called hVSIG4-L (flow cytometry)
# T1 sequence: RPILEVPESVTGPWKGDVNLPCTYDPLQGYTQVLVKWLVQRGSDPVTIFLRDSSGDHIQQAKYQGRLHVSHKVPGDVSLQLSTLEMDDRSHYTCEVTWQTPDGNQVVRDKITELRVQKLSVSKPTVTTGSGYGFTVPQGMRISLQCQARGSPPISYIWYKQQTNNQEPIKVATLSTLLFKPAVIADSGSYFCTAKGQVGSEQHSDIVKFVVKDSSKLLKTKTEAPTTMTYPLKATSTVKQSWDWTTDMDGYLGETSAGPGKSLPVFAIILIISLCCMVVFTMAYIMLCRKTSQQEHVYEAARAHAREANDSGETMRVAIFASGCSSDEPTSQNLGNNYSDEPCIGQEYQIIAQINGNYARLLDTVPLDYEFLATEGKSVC
# Method Description: flow cytometry (FJB), 200 nM mAb, huVSIG4-L CHO-K1 over parental CHO-K1
Criterion: Binding (200 nM) Fold-Over-Parental strictly under 100 fold. Met: T. Not met: F.

Answered examples (5):
14D12 mouse/human chimeric IgG4 (S228P) kappa (antibody, V domains shown) VH: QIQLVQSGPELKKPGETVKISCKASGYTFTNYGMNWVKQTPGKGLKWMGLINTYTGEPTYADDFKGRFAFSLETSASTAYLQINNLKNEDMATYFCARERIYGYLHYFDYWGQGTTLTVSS VL: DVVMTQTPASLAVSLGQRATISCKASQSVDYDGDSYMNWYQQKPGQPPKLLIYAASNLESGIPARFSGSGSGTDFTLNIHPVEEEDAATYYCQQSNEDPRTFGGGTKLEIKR    F
16E10 mouse/human chimeric IgG4 (S228P) kappa (antibody, V domains shown) VH: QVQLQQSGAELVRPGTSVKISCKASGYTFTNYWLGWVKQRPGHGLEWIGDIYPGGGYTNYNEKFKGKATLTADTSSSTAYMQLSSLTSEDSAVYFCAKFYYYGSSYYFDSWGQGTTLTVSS VL: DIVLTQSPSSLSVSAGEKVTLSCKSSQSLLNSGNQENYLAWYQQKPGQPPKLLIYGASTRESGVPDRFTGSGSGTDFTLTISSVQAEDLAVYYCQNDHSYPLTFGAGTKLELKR    T
14C05 mouse/human chimeric IgG4 (S228P) kappa (antibody, V domains shown) VH: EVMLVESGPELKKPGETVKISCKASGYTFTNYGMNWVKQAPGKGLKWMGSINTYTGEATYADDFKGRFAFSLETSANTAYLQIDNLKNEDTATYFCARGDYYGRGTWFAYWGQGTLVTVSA VL: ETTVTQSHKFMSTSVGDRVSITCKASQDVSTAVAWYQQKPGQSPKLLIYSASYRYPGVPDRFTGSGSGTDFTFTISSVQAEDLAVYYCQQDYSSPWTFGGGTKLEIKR    F
16E03 mouse/human chimeric IgG4 (S228P) kappa (antibody, V domains shown) VH: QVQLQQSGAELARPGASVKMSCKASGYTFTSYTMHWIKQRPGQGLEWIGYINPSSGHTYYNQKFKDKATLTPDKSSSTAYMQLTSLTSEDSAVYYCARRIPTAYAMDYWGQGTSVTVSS VL: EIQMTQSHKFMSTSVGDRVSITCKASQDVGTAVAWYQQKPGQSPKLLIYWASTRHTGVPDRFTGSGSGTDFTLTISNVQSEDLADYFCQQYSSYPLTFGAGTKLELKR    T
12A08 mouse/human chimeric IgG4 (S228P) kappa (antibody, V domains shown) VH: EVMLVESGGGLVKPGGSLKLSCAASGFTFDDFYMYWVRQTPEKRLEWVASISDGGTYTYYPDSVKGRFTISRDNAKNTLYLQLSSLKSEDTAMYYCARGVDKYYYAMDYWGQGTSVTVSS VL: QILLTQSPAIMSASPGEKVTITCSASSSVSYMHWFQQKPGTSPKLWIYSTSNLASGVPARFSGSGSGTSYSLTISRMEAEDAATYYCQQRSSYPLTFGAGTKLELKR    F

Inquiry: Strictly below 100 fold: is that where Binding (200 nM) Fold-Over-Parental of 15A06 mouse/human chimeric IgG4 (S228P) kappa (antibody, V domains shown) VH: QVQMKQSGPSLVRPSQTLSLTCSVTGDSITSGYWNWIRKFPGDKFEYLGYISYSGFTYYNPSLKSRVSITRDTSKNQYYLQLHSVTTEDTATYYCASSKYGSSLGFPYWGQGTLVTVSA VL: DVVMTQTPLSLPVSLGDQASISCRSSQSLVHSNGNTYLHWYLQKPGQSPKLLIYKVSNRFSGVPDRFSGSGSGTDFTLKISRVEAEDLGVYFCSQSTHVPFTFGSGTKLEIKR sits?
Reply text: T

Inquiry: Strictly below 100 fold: is that where Binding (200 nM) Fold-Over-Parental of 15C04 mouse/human chimeric IgG4 (S228P) kappa (antibody, V domains shown) VH: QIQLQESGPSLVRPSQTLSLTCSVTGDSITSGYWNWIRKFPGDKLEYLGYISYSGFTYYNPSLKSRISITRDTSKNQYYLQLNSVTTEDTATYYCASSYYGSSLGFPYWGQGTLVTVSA VL: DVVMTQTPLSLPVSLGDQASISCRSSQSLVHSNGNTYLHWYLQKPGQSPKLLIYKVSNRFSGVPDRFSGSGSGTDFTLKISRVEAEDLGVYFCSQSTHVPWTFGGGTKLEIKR sits?
Reply text: T

Inquiry: Strictly below 100 fold: is that where Binding (200 nM) Fold-Over-Parental of 13H11 mouse/human chimeric IgG4 (S228P) kappa (antibody, V domains shown) VH: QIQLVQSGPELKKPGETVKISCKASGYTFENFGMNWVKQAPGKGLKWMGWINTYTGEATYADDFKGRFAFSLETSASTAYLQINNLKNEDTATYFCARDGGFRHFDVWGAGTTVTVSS VL: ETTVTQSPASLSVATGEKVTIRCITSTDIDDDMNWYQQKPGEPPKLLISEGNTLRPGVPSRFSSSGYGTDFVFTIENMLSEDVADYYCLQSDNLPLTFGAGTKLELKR sits?
Reply text: F

All figures here come from patent US20230348603A1.
